Where a name gives a salt, the structure may show the parent alone.
Below, each of the compounds is paired with its reported melting point value.
measuredQuantity: melting point

COc1ccc(-c2cc3ncnc(Nc4ccc5[nH]ccc5c4)c3s2)cc1OC    171 to 178 °C
Cc1ccc(-c2cc3ncnc(Nc4ccc5[nH]ccc5c4)c3s2)cc1    200 to 220 °C
c1csc(CNCc2ccc(-c3cc4ncnc(Nc5ccc6[nH]ccc6c5)c4s3)cc2)c1 (as salt: mesylate)    111 to 121 °C
CCc1ccc(-c2cc3ncnc(Nc4ccc5[nH]ccc5c4)c3s2)cc1    171 to 182 °C

----------
Counter-ions that a name gives are not always drawn.
measuredQuantity: melting point

COCCCNCc1ccc(-c2cc3ncnc(Nc4ccc5[nH]ccc5c4)c3s2)cc1    160 to 175 °C
CNCc1ccc(-c2cc3ncnc(Nc4ccc5[nH]ccc5c4)c3s2)cc1 (as salt: mesylate)    140 to 147 °C
Cc1nc(Nc2ccc3[nH]ccc3c2)c2sc(-c3ccccc3)cc2n1    205 to 210 °C
OCCNCCNCc1ccc(-c2cc3ncnc(Nc4ccc5[nH]ccc5c4)c3s2)cc1 (as salt: mesylate)    78 to 95 °C
O=C(c1ccco1)N1CCN(Cc2ccc(-c3cc4ncnc(Nc5ccc6[nH]ccc6c5)c4s3)cc2)CC1    167 to 174 °C
CN(C)CCNCc1ccc(-c2cc3ncnc(Nc4ccc5[nH]ccc5c4)c3s2)cc1    170 to 183 °C
COc1ccc(Nc2ccc(Nc3ncnc4cc(-c5ccccc5)sc34)cc2)cc1    210 to 211 °C
COc1ccc(Nc2ccc(Nc3ncnc4cc(-c5ccccc5)sc34)cc2)cc1OC    160 to 161 °C
CCN(CC)CCCn1ccc2cc(Nc3ncnc4cc(-c5ccccc5)sc34)ccc21    178 to 180 °C
OCCOCCNCc1ccc(-c2cc3ncnc(Nc4ccc5[nH]ccc5c4)c3s2)cc1 (as salt: mesylate)    111 to 119 °C
c1ccc(-c2cc3ncnc(Nc4ccc(NCc5c[nH]c6ccccc56)cc4)c3s2)cc1    259 to 261 °C
Fc1ccc(-c2cc3ncnc(Nc4ccc5[nH]ccc5c4)c3s2)cc1Cl    175 to 183 °C
Clc1ccc(-c2cc3ncnc(Nc4ccc5[nH]ccc5c4)c3s2)cc1    190 to 210 °C
COC(=O)CCNCc1ccc(-c2cc3ncnc(Nc4ccc5[nH]ccc5c4)c3s2)cc1 (as salt: HCl)    105 to 118 °C
CCCNCc1ccc(-c2cc3ncnc(Nc4ccc5[nH]ccc5c4)c3s2)cc1    190 to 205 °C
COc1ccc(-c2cc3ncnc(Nc4ccc5[nH]ccc5c4)c3s2)cc1    150 to 180 °C
Cc1cc2cc(Nc3ncnc4cc(-c5ccccc5)sc34)ccc2[nH]1    218 to 220 °C
